What follows is a collection of pIC50 values obtained with UniProtKB P56560.
Sequence (P56560 whole entry): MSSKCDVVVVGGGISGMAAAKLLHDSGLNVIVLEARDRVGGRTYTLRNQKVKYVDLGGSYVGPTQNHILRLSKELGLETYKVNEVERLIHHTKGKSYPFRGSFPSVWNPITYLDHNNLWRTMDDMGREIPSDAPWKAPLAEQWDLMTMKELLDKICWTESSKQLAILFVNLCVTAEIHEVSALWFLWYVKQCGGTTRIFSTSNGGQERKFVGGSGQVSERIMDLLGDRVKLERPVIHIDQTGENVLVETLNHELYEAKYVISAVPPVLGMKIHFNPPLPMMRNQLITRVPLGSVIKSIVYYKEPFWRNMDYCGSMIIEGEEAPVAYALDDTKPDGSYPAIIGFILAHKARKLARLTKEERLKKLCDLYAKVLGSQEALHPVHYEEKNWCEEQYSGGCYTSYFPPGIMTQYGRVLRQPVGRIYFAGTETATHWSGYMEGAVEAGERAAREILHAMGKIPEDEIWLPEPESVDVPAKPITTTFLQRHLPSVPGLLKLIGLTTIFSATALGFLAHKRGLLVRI
When answering, recall that pIC50 equals minus log10 of the concentration in mol/L, and write that number alone.

Entry under review: C#CCN(C)Cc1cc2cc(OC)ccc2n1C [(l)] . Reported pIC50?
6.05

How about C=C=CCN(C)Cc1cc2cc(OC)ccc2[nH]1 [(i)] ?
5.30

How about C=C=CCN(C)Cc1cc2cc(OC)ccc2n1C [(r)] ?
6.30

###

Can you tell me log10(IC50) for the items I'm about to list?
Target: Bovine Brain MAO A (Bos taurus)
Sequence (P21398 1-527): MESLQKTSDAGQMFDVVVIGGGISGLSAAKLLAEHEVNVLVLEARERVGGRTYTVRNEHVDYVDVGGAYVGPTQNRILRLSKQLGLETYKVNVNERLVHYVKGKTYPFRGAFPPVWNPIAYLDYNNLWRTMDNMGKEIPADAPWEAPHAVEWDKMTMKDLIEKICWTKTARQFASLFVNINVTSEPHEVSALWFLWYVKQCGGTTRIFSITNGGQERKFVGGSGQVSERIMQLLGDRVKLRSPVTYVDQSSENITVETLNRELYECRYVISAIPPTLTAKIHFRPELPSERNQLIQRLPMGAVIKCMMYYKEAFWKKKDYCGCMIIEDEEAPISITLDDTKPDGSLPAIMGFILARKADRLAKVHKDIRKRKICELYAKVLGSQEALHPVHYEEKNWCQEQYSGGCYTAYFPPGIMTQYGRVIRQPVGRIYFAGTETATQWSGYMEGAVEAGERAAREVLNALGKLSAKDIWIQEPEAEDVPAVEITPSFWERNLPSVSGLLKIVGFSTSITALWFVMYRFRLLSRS
Form field - Quantity: IC50; Unit: nM; Scale: log10

Entry under review: C#CCN(C)Cc1cc2cc(OC)ccc2n1C . Reported log10(IC50)?
0.95

How about COc1ccc2[nH]c(CN)cc2c1 [(s), 2-(5-methoxy-indolyl)methylamine] ?
4.70

How about C=C=CCN(C)Cc1cc2cc(OC)ccc2n1C [(r)] ?
0.73

How about C=C=CCN(CC=C=C)Cc1cc2cc(OC)ccc2n1C ?
2.48

How about C#CCN(C)Cc1cc2cc(OC)ccc2[nH]1 ?
0.85

How about CC#CCN(C)Cc1cc2cc(OC)ccc2[nH]1 ?
0.95

How about C#CCNCc1cc2cc(OC)ccc2[nH]1 ?
2.34

How about C=C=CCNCc1cc2cc(OC)ccc2n1C ?
1.34

How about C#CCNCc1cc2cc(OC)ccc2n1C ?
1.32

How about C=C=CCNCc1cc2cc(OC)ccc2[nH]1 ?
1.65
